TESTED_ON: Coagulation factor VII (Homo sapiens)
Sequence (P08709 whole entry): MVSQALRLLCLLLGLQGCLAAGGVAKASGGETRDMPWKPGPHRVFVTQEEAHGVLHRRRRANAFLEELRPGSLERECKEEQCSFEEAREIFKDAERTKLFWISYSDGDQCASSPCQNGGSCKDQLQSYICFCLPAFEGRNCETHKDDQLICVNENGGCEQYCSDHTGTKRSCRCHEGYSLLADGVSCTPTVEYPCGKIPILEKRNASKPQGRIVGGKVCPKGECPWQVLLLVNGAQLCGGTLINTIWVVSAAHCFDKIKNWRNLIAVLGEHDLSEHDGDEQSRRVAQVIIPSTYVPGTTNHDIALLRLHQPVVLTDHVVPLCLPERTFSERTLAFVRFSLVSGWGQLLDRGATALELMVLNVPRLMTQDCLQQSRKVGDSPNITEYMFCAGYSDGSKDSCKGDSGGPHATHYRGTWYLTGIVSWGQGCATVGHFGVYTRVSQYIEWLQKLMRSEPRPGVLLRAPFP
ASSAY_TEXT: Inhibition of tissue factor activated recombinant human coagulation factor 7a expressed in hamster BHK cells using S2288 as substrate pretreated for 15 mins with substrate followed by enzyme and tissue factor addition measured for 60 mins
METRIC: Ki (nM)

(A) CCOC(=O)C[C@H]1NC(=O)[C@H](Nc2ccc3cc[nH]c(=O)c3c2)c2cc(C)c(c(C)c2)CCOC(=O)Nc2cccc1c2
(B) CCS(=O)(=O)c1ccc2cc1CN(C)C(=O)[C@H](Nc1ccc3cc[nH]c(=O)c3c1)c1ccc(cc1)CCOC(=O)N2
(Q) Could you determine which record has the numerically smaller Ki? Candidates: A and B Write down the label attached to your selection.
(A) B
